Task for the reader: assign each of the following binders its reported Inhibition of binding (%).
- Experimental target: hCMV gH + gL + UL128 + UL130 + UL131A (co-expressed in HEK293T cells) (human cytomegalovirus), P12824
- Assay text: competitor: 4I22-biotin; cell staining
- Run conditions: remark: other sources report otherwise
Numbers only, in %.

Quick request: Inhibition of binding (%) for each listed item, please.
1. 10P3 (antibody, V domains shown) VH: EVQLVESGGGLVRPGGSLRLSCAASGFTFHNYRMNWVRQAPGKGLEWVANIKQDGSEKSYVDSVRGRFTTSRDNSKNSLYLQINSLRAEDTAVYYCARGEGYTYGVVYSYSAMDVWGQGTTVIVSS VL: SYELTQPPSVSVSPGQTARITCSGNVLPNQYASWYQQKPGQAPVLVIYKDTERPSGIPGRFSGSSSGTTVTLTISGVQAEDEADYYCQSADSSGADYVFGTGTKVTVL
2. 8J16 (antibody, V domains shown) VH: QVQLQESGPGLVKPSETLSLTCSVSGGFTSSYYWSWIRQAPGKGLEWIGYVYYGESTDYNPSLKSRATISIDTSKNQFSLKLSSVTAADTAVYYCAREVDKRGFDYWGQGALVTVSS VL: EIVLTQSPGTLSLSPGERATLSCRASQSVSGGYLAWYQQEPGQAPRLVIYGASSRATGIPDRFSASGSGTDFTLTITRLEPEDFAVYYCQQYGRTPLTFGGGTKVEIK

[0, 0]
